Test: Short-term physical stability of salts at 40° C./75% RH for 2 weeks (XRPD)
Assay type: physicochemical
Settings: determined by XRPD
Where a name gives a salt, the structure may show the parent alone.
readout.name: Form after 2 weeks

• CS(=O)(=O)N1CCC(COc2coc(CN3Cc4ccc(C(F)(F)F)cc4C3)cc2=O)CC1 [Hydrobromic acid salt (form 1)] = No change
• CS(=O)(=O)N1CCC(COc2coc(CN3Cc4ccc(C(F)(F)F)cc4C3)cc2=O)CC1 [p-Toluenesulfonic acid salt (form 1)] = No change
• CS(=O)(=O)N1CCC(COc2coc(CN3Cc4ccc(C(F)(F)F)cc4C3)cc2=O)CC1 [p-Toluenesulfonic acid salt (form 2)] = No change
• CS(=O)(=O)N1CCC(COc2coc(CN3Cc4ccc(C(F)(F)F)cc4C3)cc2=O)CC1 [Hydrochloric acid salt (form 1)] = No change
• CS(=O)(=O)N1CCC(COc2coc(CN3Cc4ccc(C(F)(F)F)cc4C3)cc2=O)CC1 [2-Naphthalenesulphonic acid salt (form 1)] = No change
• CS(=O)(=O)N1CCC(COc2coc(CN3Cc4ccc(C(F)(F)F)cc4C3)cc2=O)CC1 [Benzenesulfonic acid salt (form 1)] = No change
• CS(=O)(=O)N1CCC(COc2coc(CN3Cc4ccc(C(F)(F)F)cc4C3)cc2=O)CC1 [Oxalic acid salt (form 1)] = Form 1 + extra peaks
• CS(=O)(=O)N1CCC(COc2coc(CN3Cc4ccc(C(F)(F)F)cc4C3)cc2=O)CC1 [Oxalic acid salt (form 4)] = No change
• CS(=O)(=O)N1CCC(COc2coc(CN3Cc4ccc(C(F)(F)F)cc4C3)cc2=O)CC1 [Methanesulfonic acid salt (form 1)] = No change
• CS(=O)(=O)N1CCC(COc2coc(CN3Cc4ccc(C(F)(F)F)cc4C3)cc2=O)CC1 [Maleic acid salt (form 1)] = Form 1 + extra peaks

Please look at this compound and report its Form after 2 weeks: CS(=O)(=O)N1CCC(COc2coc(CN3Cc4ccc(C(F)(F)F)cc4C3)cc2=O)CC1 [Oxalic acid salt (form 2)] No change
